- targetOrSystem: Melanocortin receptor 4 (Homo sapiens)
- Sequence (P32245 whole entry): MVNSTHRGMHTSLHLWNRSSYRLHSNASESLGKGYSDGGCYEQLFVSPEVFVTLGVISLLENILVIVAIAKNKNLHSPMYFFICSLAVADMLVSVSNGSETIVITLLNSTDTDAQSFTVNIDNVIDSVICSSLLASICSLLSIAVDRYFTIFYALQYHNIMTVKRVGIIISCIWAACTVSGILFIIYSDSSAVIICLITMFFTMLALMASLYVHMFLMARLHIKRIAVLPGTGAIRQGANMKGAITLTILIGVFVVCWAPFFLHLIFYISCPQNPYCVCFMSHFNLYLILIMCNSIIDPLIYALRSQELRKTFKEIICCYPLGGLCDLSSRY
- procedureDetails: Inhibition of [125I]NDP-MSH (radioligand) binding to the hMC4R stably expressed in HEK293 cells
- Type: cell-based
metric: Ki (nM)

# sampleSmiles, displayUnit, Ki
measured = [
    ("NCCC(=O)N[C@H](Cc1ccc(Cl)cc1Cl)C(=O)N1CCN(C2(CNCCCc3ccccc3)CCCCC2)CC1", "nM", 60),
]

[1] NCCC(=O)N[C@H](Cc1ccc(Cl)cc1Cl)C(=O)N1CCN(C2(CNC(=O)Nc3ccc(Cl)cc3)CCCCC2)CC1
[2] N#Cc1ccc(CNCC2(N3CCN(C(=O)[C@@H](Cc4ccc(Cl)cc4Cl)NC(=O)CCN)CC3)CCCCC2)cc1
Of the two listed items, which has the higher Ki? First: 1 Second: 2 # answer = label of selected item 1
(1: 420 nM, 2: 92 nM)
